# assay_system: UniProtKB Q9UBN7
# Sequence (Q9UBN7 whole entry): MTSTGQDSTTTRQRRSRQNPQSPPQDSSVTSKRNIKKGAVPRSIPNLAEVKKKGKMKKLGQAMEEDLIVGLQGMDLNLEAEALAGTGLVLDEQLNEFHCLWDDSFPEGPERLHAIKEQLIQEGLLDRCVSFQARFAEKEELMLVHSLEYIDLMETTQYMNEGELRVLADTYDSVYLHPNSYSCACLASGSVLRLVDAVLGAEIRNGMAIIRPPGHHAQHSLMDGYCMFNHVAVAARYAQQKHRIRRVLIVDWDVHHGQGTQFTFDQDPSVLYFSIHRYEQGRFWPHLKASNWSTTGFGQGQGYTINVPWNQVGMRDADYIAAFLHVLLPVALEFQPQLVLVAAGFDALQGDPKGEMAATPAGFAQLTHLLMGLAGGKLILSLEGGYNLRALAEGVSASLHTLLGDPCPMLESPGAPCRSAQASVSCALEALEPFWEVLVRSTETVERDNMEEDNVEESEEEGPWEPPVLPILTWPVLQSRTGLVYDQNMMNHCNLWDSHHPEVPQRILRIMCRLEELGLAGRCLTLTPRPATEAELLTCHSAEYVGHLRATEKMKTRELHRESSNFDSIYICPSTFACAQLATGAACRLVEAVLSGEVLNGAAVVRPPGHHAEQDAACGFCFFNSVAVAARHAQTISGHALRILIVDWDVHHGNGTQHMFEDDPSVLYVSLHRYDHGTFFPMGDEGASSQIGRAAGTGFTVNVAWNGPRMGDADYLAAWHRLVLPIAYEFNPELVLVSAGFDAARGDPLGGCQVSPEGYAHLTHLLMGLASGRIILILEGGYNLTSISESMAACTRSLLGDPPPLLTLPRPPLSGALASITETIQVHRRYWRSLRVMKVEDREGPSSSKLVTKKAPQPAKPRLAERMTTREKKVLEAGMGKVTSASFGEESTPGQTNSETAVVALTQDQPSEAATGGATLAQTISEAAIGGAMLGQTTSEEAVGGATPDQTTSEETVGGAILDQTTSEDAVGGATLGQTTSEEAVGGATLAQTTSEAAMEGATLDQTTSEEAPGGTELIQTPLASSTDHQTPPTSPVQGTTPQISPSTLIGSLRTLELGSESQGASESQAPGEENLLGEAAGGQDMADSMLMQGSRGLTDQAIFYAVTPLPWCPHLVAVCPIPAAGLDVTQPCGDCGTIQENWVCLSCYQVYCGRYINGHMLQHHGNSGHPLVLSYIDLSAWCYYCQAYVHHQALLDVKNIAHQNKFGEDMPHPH
measured_metric: pIC50
Entry type: numeric. Quantity: pIC50, the -log10 of concentration in molar units.

Request: Note pIC50 for the molecule shown: `C[C@@H]1CN(Cc2ccc(C(=O)NO)cc2)C[C@H]1c1nc2c(cnn2C2CCCC2)c(=O)[nH]1`
Result: 7.40

----------
# assay_system: Histone deacetylase 2 (Homo sapiens)
# Sequence (Q92769 whole entry): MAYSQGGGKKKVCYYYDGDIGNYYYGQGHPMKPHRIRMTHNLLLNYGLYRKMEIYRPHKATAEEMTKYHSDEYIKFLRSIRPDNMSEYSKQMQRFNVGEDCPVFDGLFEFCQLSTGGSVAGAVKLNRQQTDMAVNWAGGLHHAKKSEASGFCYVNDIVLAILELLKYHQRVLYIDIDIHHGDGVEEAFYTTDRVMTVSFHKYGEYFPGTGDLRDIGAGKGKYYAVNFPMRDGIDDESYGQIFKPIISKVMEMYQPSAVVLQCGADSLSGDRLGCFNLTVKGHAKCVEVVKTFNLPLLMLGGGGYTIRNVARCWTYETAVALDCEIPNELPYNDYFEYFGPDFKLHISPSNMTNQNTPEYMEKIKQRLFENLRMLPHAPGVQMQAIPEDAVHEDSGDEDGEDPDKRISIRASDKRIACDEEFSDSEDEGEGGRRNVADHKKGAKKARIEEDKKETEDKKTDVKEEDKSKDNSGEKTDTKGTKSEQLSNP
# assay_comment: Inhibition of HDAC2 (unknown origin)
measured_metric: IC50 (µM)
Record the value in µM, omitting the unit from your answer.

Request: Report IC50, nothing else, for this compound: `C[C@@H]1CN(Cc2ccc(C(=O)NO)cc2)C[C@H]1c1nc2c(cnn2C2CCCC2)c(=O)[nH]1`
Result: 3.53

----------
# assay_system: UniProtKB Q13547
# Sequence (Q13547 whole entry): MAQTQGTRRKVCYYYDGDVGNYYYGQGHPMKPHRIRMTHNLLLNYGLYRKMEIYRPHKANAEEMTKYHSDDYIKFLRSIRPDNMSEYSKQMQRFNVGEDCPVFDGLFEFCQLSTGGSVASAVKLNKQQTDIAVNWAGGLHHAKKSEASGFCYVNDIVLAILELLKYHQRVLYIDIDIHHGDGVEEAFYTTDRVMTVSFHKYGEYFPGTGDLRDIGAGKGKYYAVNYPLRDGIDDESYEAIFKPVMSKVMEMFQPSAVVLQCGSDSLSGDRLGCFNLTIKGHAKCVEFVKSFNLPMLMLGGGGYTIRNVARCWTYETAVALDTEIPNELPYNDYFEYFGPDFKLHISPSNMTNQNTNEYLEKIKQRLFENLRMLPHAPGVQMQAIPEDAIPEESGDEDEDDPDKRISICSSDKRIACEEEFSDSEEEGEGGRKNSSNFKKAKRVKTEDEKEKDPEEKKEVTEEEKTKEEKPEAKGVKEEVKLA
# assay_comment: Inhibition of HDAC1 (unknown origin)
measured_metric: IC50 (nM)
Number in nM, nothing else.

Request: Entry `C[C@@H]1CN(Cc2ccc(C(=O)NO)cc2)C[C@H]1c1nc2c(cnn2C2CCCC2)c(=O)[nH]1` needs its IC50 filled in; supply it.
Result: 593
